Please provide measured cytotoxicity for the entries that follow.
assay: in vitro; conditions: pig
Structures can show the parent of a compound that is named as a salt.
Dear colleague, please return just the value in %, with no unit written.

Noted for Nc1ccn(C2OC(CO)C3[O][Sn]([c]4ccccc4)([c]4ccccc4)[O]C32)c(=O)n1 (stereo not shown) [Compound 36] : its cytotoxicity reads 7.66

Noted for CC(C)(C)c1cc(C#N)cc(Br)c1OP(=O)(Oc1c(Br)cc(C#N)cc1C(C)(C)C)c1ccccc1 [Compound 60] : its cytotoxicity reads 6.95

Noted for O=C(O)C1CCCN1Cc1ccc2c(c1)OCO2 (stereo not shown) [Compound 46] : its cytotoxicity reads 7.36

Noted for COC(=O)c1ccc(CCc2cc(O)ccc2O)cc1 [Compound 47] : its cytotoxicity reads 6.86

Noted for COc1ccc(C(=O)CCN(C)C)c2ccccc12 [Compound 5] : its cytotoxicity reads 7.1

Noted for COc1cc2ccccc2c2cc([N+](=O)[O-])oc12 [Compound 1, 4-methoxy-2-nitrobenzo[e][1]benzofuran] : its cytotoxicity reads 7.56

Noted for Cc1cc(Cc2cc(C)cc(C(C)(C)C)c2O)c(O)c(Cc2cc(C)cc(C(C)(C)C)c2O)c1 [Compound 33] : its cytotoxicity reads 7.44

Noted for Cl.O=C1C(=Cc2ccccc2)C(NC2CCCCC2)c2ccccc21 (stereo not shown) [Compound 67] : its cytotoxicity reads 7.78

Noted for CCC1(OC(=O)CN)C(=O)OCc2c1cc1n(c2=O)Cc2cc3ccccc3nc2-1 (stereo not shown) [Compound 34, hydrochloride] : its cytotoxicity reads 10.2

Noted for O=C(O)c1c(Br)c(Br)c(Br)c(Br)c1C1c2ccc(O)cc2Oc2cc(O)ccc21 [Compound 62] : its cytotoxicity reads 13.6

Noted for Clc1ccc2c(NCCNc3ccnc4cc(Cl)ccc34)ccnc2c1 [Compound 16] : its cytotoxicity reads 6.78

Noted for O=[N+]([O-])c1ccc(S(=O)(=O)Cc2ccccc2)c([N+](=O)[O-])c1 [Compound 64, 1-benzylsulfonyl-2,4-dinitrobenzene] : its cytotoxicity reads 7.09

Noted for C[C@H]1CCC/C=C/[C@@H]2C[C@H](OC(=O)CN(C)C)C[C@H]2[C@H](O)/C=C/C(=O)O1 [Compound 18] : its cytotoxicity reads 7.6

Noted for COc1ccc(-c2csc3c2-n2cccc2C3=O)cc1 [Compound 63] : its cytotoxicity reads 7.48

Noted for CCC(=O)OCN1C(=O)C=CC1=O [Compound 39, (2,5-dioxopyrrol-1-yl)methyl propanoate] : its cytotoxicity reads 8.54

Noted for CCCC(c1cc(C(C)(C)C)c(O)cc1C)c1cc(C(C)(C)C)c(O)cc1C [Compound 24] : its cytotoxicity reads 8.54

====

system: angiogenesis genes in dermal microvascular endothelial cells; test: Real time RT-PCR of angiogenesis gene expression during endothelial tube formation; assay type: cell-based; settings: 1 μM SM, 24 hours
Exam item: assign T to entries whose Log2 fold-change of gene expression: 57722 is below 0.1 and F to entries at or above 0.1. Note that a value of exactly 0.1 receives F.

Lab note: confirm whether the reported Log2 fold-change of gene expression: 57722 for this molecule is below 0.1, equality not counting. molecule: COc1ccc(CC2C(=O)NC(C)C(=O)N(C)C3Cc4ccc(cc4)Oc4cc(ccc4O)CC(C(=O)NC(C)C(=O)NC(C)C(=O)N2C)N(C)C3=O)cc1 (stereo not drawn) [compound 259969]
T

Lab note: confirm whether the reported Log2 fold-change of gene expression: 57722 for this molecule is below 0.1, equality not counting. molecule: COc1cc2cc(c1Cl)N(C)C(=O)CC(OC(=O)C(C)C)C1(C)OC1C(C)C1CC(O)(NC(=O)O1)C(OC)/C=C/C=C(\C)C2 (stereo not drawn) [compound 292222]
T

Lab note: confirm whether the reported Log2 fold-change of gene expression: 57722 for this molecule is below 0.1, equality not counting. molecule: O=C1C(=Cc2ccccc2)C(NC2CCCCC2)c2ccccc21 (stereo not drawn) [compound 150117]
T

Lab note: confirm whether the reported Log2 fold-change of gene expression: 57722 for this molecule is below 0.1, equality not counting. molecule: CCC(=O)OCN1C(=O)C=CC1=O [compound 19630]
F

Lab note: confirm whether the reported Log2 fold-change of gene expression: 57722 for this molecule is below 0.1, equality not counting. molecule: CC1CCN(CC[S-])CC1.O.O.[Cl][Pt+] [compound 292596]
T

====

Please provide measured cytotoxicity for the entries that follow.
experiment: in vitro; settings: pig
Dear colleague, please return just the value in %, with no unit written.

Noted for `O=C(c1no[n+]([O-])c1C(=O)c1csc2ccccc12)c1csc2ccccc12` : its cytotoxicity reads 19.1

Noted for CCN(CC)COC(=S)S [Compound 4, sodium] : its cytotoxicity reads 7.35

Noted for `FC(F)(F)c1cccc(-c2nc3nc(Cl)c(Cl)nc3[nH]2)c1` : its cytotoxicity reads 6.73

Noted for `Cc1cc(O)c(-c2cc(O)c(C)cc2O)cc1O` : its cytotoxicity reads 7.23

Noted for `O=C1c2ccccc2-c2cc([N+](=O)[O-])c([N+](=O)[O-])cc21` : its cytotoxicity reads 6.97

Noted for `N=C1C=CC(=C(c2ccc(N)cc2)c2ccc(N)cc2)C=C1` : its cytotoxicity reads 8.51

====

tested on: angiogenesis genes in dermal microvascular endothelial cells; experiment: Real time RT-PCR of angiogenesis gene expression during endothelial tube formation; type: cell-based; details: 1 μM SM, 24 hours
readout name: Log2 fold-change of gene expression: copa

Noted for CCC(=O)OCN1C(=O)C=CC1=O [compound 19630] : its Log2 fold-change of gene expression: copa reads 0.4

Noted for CC1CCN(CC[S-])CC1.O.O.[Cl][Pt+] [compound 292596] : its Log2 fold-change of gene expression: copa reads −0.5

Noted for COc1cc2cc(c1Cl)N(C)C(=O)CC(OC(=O)C(C)C)C1(C)OC1C(C)C1CC(O)(NC(=O)O1)C(OC)/C=C/C=C(\C)C2 (centres unmarked) [compound 292222] : its Log2 fold-change of gene expression: copa reads 0.2

Noted for O=C1C(=Cc2ccccc2)C(NC2CCCCC2)c2ccccc21 (centres unmarked) [compound 150117] : its Log2 fold-change of gene expression: copa reads 0.0

Noted for COc1ccc(CC2C(=O)NC(C)C(=O)N(C)C3Cc4ccc(cc4)Oc4cc(ccc4O)CC(C(=O)NC(C)C(=O)NC(C)C(=O)N2C)N(C)C3=O)cc1 (centres unmarked) [compound 259969] : its Log2 fold-change of gene expression: copa reads −2.1

====

molecular target: KDR(VEGFR2) (Homo sapiens, UniProt P35968); test: SelectScreen kinase activity profiling, KDR(VEGFR2); format: biochemical; parameters: concentration or dose not given beside the values; conditions: KDR(VEGFR2); second of two independent trials
Sequence (P35968 20-1356): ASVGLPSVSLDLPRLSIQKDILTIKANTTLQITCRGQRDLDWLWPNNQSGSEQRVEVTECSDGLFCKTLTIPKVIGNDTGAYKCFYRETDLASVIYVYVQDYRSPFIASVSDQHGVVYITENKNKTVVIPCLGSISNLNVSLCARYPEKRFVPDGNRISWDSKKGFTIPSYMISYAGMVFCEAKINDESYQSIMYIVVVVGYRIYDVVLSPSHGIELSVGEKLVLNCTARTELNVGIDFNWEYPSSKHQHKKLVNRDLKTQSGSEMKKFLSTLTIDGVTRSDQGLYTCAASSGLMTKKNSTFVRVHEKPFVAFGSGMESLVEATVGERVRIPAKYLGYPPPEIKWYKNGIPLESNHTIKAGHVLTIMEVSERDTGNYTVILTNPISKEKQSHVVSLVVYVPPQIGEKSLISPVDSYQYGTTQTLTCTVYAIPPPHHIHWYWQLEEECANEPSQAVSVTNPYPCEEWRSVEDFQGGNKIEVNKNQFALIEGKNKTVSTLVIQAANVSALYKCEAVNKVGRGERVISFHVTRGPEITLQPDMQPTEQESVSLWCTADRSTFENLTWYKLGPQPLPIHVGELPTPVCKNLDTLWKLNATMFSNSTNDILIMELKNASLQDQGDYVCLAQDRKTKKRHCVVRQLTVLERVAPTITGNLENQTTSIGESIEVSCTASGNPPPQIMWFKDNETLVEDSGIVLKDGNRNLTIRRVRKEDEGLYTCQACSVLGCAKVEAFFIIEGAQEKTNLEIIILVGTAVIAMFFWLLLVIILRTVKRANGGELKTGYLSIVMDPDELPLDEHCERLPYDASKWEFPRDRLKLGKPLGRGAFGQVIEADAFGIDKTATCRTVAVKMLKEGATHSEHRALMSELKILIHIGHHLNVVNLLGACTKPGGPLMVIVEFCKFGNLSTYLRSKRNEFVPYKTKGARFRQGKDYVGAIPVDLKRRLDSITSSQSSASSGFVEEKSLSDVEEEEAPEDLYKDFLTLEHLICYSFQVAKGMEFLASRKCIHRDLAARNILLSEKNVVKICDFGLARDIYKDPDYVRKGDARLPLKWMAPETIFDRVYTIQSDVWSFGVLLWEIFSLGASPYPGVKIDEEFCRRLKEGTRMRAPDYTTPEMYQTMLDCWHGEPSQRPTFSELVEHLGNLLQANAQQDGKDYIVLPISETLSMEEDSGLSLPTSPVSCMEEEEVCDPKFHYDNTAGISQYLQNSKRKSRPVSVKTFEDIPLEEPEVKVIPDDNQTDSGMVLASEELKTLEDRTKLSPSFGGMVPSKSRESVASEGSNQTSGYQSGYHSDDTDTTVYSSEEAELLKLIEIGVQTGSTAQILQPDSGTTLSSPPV
Please provide measured % Inhibition for the entries that follow.
Dear colleague, please return just the value in %, with no unit written.

Field % Inhibition (system: KDR(VEGFR2) (Homo sapiens, UniProt P35968)) for entry CC1(C)C2CCC1(C)C(OC(=O)CSC#N)C2 (stereo not drawn) = 5

Field % Inhibition (system: KDR(VEGFR2) (Homo sapiens, UniProt P35968)) for entry `O=[N+]([O-])c1ccc(S(=O)(=O)Cc2ccccc2)c([N+](=O)[O-])c1` = 14

Field % Inhibition (system: KDR(VEGFR2) (Homo sapiens, UniProt P35968)) for entry `CCCCC[CH2][Hg][S]c1nc(N)nc2[nH]cnc12` = 38

====

Please provide measured Mean % Inhibition for the entries that follow.
biological target: UniProt:P35968; test: SelectScreen kinase activity profiling, KDR(VEGFR2); assay type: biochemical; design: concentration or dose not given beside the values; details: KDR(VEGFR2); mean of two independent trials
Dear colleague, please return just the value in %, with no unit written.

Noted for `S=C1SCN(C2CCCCCCCCCCC2)CN1C1CCCCCCCCCCC1` : its Mean % Inhibition reads 10

Noted for `COc1ccc(-c2csc3c2-n2cccc2C3=O)cc1` : its Mean % Inhibition reads 5

Noted for `CCC(=O)OCN1C(=O)C=CC1=O` : its Mean % Inhibition reads 90

Noted for `CC(C)(C)c1cc(C#N)cc(Br)c1OP(=O)(Oc1c(Br)cc(C#N)cc1C(C)(C)C)c1ccccc1` : its Mean % Inhibition reads 8

Noted for `O=[N+]([O-])c1ccc(S(=O)(=O)Cc2ccccc2)c([N+](=O)[O-])c1` : its Mean % Inhibition reads 14

Noted for `COC(=O)c1ccc(CCc2cc(O)ccc2O)cc1` : its Mean % Inhibition reads 9

====

test system: angiogenesis genes in dermal microvascular endothelial cells; assay: Real time RT-PCR of angiogenesis gene expression during endothelial tube formation; format: cell-based; settings: 1 μM SM, 24 hours
Please provide measured Log2 fold-change of gene expression: GRRP1 for the entries that follow.
Field format: numeric only.

Noted for COc1cc2cc(c1Cl)N(C)C(=O)CC(OC(=O)C(C)C)C1(C)OC1C(C)C1CC(O)(NC(=O)O1)C(OC)/C=C/C=C(\C)C2 (centres unmarked) [compound 292222] : its Log2 fold-change of gene expression: GRRP1 reads 0.1

Noted for CCC(=O)OCN1C(=O)C=CC1=O [compound 19630] : its Log2 fold-change of gene expression: GRRP1 reads 0.0

Noted for O=C1C(=Cc2ccccc2)C(NC2CCCCC2)c2ccccc21 (centres unmarked) [compound 150117] : its Log2 fold-change of gene expression: GRRP1 reads 0.0

Noted for CC1CCN(CC[S-])CC1.O.O.[Cl][Pt+] [compound 292596] : its Log2 fold-change of gene expression: GRRP1 reads 0.2

Noted for COC(=O)C1CC(=O)C(C(=O)OC)CC1=O (centres unmarked) [Compound 122567] : its Log2 fold-change of gene expression: GRRP1 reads −0.3

Reference for the values: patent US9504729B2
